- test-protocol: in vitro
- experimental-setup: human, liver microsomes
property-measured: half-life at 0.5 µM (h)
Just the number in h, nothing appended.

Prompt line: If you can, please state the reported half-life at 0.5 µM value of `CNC(=O)c1cc(Oc2ccc(NC(=O)Nc3ccc(Cl)c(C(F)(F)F)c3)cc2)ccn1` .
Response line: 5.6
